B1: H2-Kb / Ed9 (parent complex)
chain 1: AQSVTQPDARVTVSEGASLQLRCKYSYFGTPYLFWYVQYPRQGLQLLLKYYPGDPVVQGVNGFEAEFSKSNSSFHLRKASVHWSDWAVYFCAVSITGGYKVVFGSGTRLLVSP
chain 2: DSGVVQSPRHIIKEKGGRSVLTCIPISGHSNVVWYQQTLGKELKFLIQHYEKVERDKGFLPSRFSVQQFDDYHSEMNMSALELEDSAMYFCASSPRQSDYTFGSGTRLLVI
chain 3: not shown
chain 4: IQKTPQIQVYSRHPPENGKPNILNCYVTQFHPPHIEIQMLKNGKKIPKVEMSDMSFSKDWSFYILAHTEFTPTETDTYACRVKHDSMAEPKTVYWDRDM
chain 5: SIINFEKL

- Variants of: B1
- assay-details: % of reporter cells activated (NFAT-GFP), raw; note: test concentration or dose not given here
readout-kind: ratio to parent

{"mutant-designation": "chain 5 S1R", "ratio to parent": 0.402}

// fetch ratio to parent given entry chain 5 I3K
0.907

// fetch ratio to parent given entry chain 5 L8N
0.883

Entry source: paper PMC11480844
